B1: RPAIN (parent)
chain: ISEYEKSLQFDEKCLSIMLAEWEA

Variants of: B1
Assay: protein stability index of a GFP-peptide fusion (GPS, HEK-293T) (PSI 1-6); higher = more stable;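 further: lentivirally expressed fusions sorted by FACS into six bins by GFP to DsRed ratio, PSI derived from sequencing read proportions per bin multiplied by bin number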
Details: c terminus: a fixed tail appended
So basically: protein stability index at 2 or higher? That is true. Lower than 2? That is false.

Hello, I need to know if `A20F` has measured protein stability index not below 2. Thanks! false

Hello, I need to know if `A20D` has measured protein stability index not below 2. Thanks! false

Hello, I need to know if `W22M` has measured protein stability index not below 2. Thanks! false

Hello, I need to know if `L8T` has measured protein stability index not below 2. Thanks! true

Hello, I need to know if `A20K` has measured protein stability index not below 2. Thanks! false

Hello, I need to know if `L15H` has measured protein stability index not below 2. Thanks! true

Hello, I need to know if `M18C` has measured protein stability index not below 2. Thanks! false
